species on record: Rattus norvegicus; assay: Inhibition of the uterine smooth muscle contraction induced by histamine on the isolated rat uterus at high dose /concentration.; assay type: functional; conditions: read-out: ED50 (the source's name)
endpointName: EC50 (nM)
Your answer should be a plain number; it is taken to be in nM.

Looking up NC(=O)c1cn2cc(Br)nc(Br)c2n1 , I found its EC50 recorded as 0.33

----------
organism: Rattus norvegicus; test: Inhibition of the uterine smooth muscle contraction induced by histamine on the isolated rat uterus at high dose; assay type: functional; conditions: read-out: ED50 (the source's name)
endpointName: EC50

Looking up COC(=O)c1cn2ccncc2n1 , I found its EC50 recorded as > 2.4 nM
